Procedure summary: NCI Yeast Anticancer Drug Screen. Data for the cln2 rad14 strain (AID 165);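 further: 0% = growth equal to vehicle treated cultures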
Stated conditions: S. cerevisiae cln2 rad14 strain, at 50.0 µM (retest, dose inferred, filed as 5.0), hits give high values
This is part of a sample that, as a whole, favours compounds with a hit. Of some 79,000 tested, about 15% had one in any assay.
Entries and their growth inhibition
Property measured: growth inhibition (%)

Compound | Unit string | Numeric value
CCCCCCCCCCCCO | % | 12
COC(=O)C1(COCc2ccccc2)CCCC2OC21 (stereo not drawn) | % | 43
COc1cc2c(cc1O)-c1c(cnn1-c1ccc([N+](=O)[O-])cc1)CCC2 | % | 52
O=[N+]([O-])/C(Cl)=C(\Nc1ccccc1)C(Cl)=C(Cl)Cl | % | 99
Cc1c(N=Nc2c(S(=O)(=O)O)cc3cc(S(=O)(=O)O)c(N=Nc4c(C)n(C)n(-c5ccccc5)c4=O)c(O)c3c2O)c(=O)n(-c2ccccc2)n1C | % | 8
C/C(=C\c1ccccc1Cl)c1ccccn1 | % | 7
CC(=O)OC(c1ccc(Cl)cc1)c1ccc(Cl)cc1 | % | 4
O=[N+]([O-])c1ccc(CC(c2ccc([N+](=O)[O-])cc2)(c2ccc([N+](=O)[O-])cc2)c2ccc([N+](=O)[O-])cc2)cc1 | % | -20
Cc1cccc(CC(C)(C)C)c1NC(=O)C(=O)C(C(=O)c1ccc2ccccc2c1)C1OC(=O)c2ccccc21 (stereo not drawn) | % | 76
O=[N+]([O-])/C(Cl)=C/C(=C1/Nc2ccccc2O1)[N+](=O)[O-] | % | 47
NNc1cc(Cl)ccc1Cl | % | 98
Clc1ccc2c(NC3CCC(N4CCCCC4)CC3)ccnc2c1 (stereo not drawn) | % | 97
[O-][N+]1=C2CCC/C(=N/O)C2(O)C2CCCCC21N1CCOCC1 (stereo not drawn) | % | 26
CN(NC1OC(=O)c2ccccc21)c1ccc(C(F)(F)F)cc1[N+](=O)[O-] (stereo not drawn) | % | 31
O=C(CCC(O)(c1ccccc1)c1ccccc1)c1ccccc1 | % | 99
Cc1ccc(-c2c(C#N)c(-c3ccc(Cl)cc3)c(C#N)c(=O)n2NS(=O)(=O)c2ccccc2)cc1 | % | 60
O=c1ncccn1[C@@H]1O[C@H](CO)[C@H](O)C1O (stereo partly drawn) | % | 12
CN(/N=C\c1ccc2ccccc2c1)C1=NCCCN1 | % | 66
CCCCNC(=S)NC1OC(CO)C(O)C(O)C1O (stereo not drawn) | % | -3
CC(=Nc1ccc(S(=O)(=O)c2ccc(N=C(C)N3CCCCC3)cc2)cc1)N1CCCCC1 | % | -2
O=C(Nc1ccc(Cl)cc1)NS(=O)(=O)c1c(-c2ccccc2)oc2ccccc2c1=O | % | 98
Cn1cnc(=S)c2[nH]cnc21 | % | -4
c1nc2nc(N3CCOCC3)nc(N3CCCCC3)c2[nH]1 | % | 0
O=[N+]([O-])c1ccc2c(c1)/C(=N/O)c1ccccc1-2 | % | 4
O=C(c1ccccc1)c1cccc2ccccc12 | % | -24
O=C1c2c(Br)sc(Br)c2[C@@H](NC(=O)C(F)(F)F)C1Br (stereo partly drawn) | % | 93
O=C(c1ccccc1)N1CCCCC1 | % | 3
CCOC(=O)C(NC(C)=O)[CH](c1ccc(OC)cc1)[Sn]([c]1ccccc1)([c]1ccccc1)[c]1ccccc1 (stereo not drawn) | % | 99

====

Procedure summary: NCI Yeast Anticancer Drug Screen. Data for the mec2-1 strain (AID 157)
Stated conditions: S. cerevisiae mec2-1 strain, at 50.0 µM (retest, dose inferred, filed as 5.0)
This is part of a sample that, as a whole, favours compounds with a hit. Of some 79,000 tested, about 15% had one in any assay. Calls of active or inactive are those of the source. Rule as the data show it: active = growth inhibition above about 70%; inactive = the rest.
Outcomes: active, inactive

Compound | Class
CC(C)c1ccc(C(=O)C2CC2)cc1 | inactive
Clc1cc2ccccc2c2ccccc12 | inactive
CN(C)c1ccc(C=Nc2cncc3ccccc23)cc1 | inactive
CCN(CC)CCCCCCNc1cc(C)cc2cccnc12 | inactive
c1ccc(OCCN2CCN(CCOc3ccccc3)CC2)cc1 | inactive
Cc1c(N=Nc2cccc(F)c2)c(-c2ccccc2)nn1C(N)=S | active
CC(=O)Nc1ccc(-c2ccccc2)cc1[N+](=O)[O-] | inactive
Cc1ccc(Nc2nc3nc[nH]c3c(=O)[nH]2)cc1CO | inactive
Cc1ccccc1Sc1ncnc2ccccc12 | inactive
O=C1OC(c2ccc3c(c2)OCO3)Sc2ccccc21 (stereo not given) | inactive
CN(/N=C\c1cccc([N+](=O)[O-])c1)C(c1cccc([N+](=O)[O-])c1)N(C)/N=C/c1cccc([N+](=O)[O-])c1 (stereo not given) | inactive
COc1ccc(CSC(=S)Nc2ccc(SC)c(Cl)c2)cc1 | active
COc1cc(OC)c(/C=C\c2ccnc3ccccc23)c(OC)c1 | active
O=[N+]([O-])c1ccccc1Oc1ccc([N+](=O)[O-])c(C(F)(F)F)c1 | active
Cc1nc(Nc2ccccc2)sc1C(=O)NNc1ccc([N+](=O)[O-])cc1[N+](=O)[O-] | inactive

====

Procedure summary: NCI Yeast Anticancer Drug Screen. Data for the bub3 strain (AID 167)
Stated conditions: S. cerevisiae bub3 mutant strain, at 5.0 µM (retest, dose inferred, filed as 0.5), hits give high values
About 79,000 compounds went through this panel and 15% of them were active in at least one assay; those are over-represented in the sample as a whole.
Property measured: growth inhibition (%)

Compound | Unit string | Numeric value
N/C(CC(=O)NOC(=O)c1ccccc1)=N/OC(=O)c1ccccc1 | % | -6
COc1cc(C)c2sc3ccccc3c(=O)c2c1NCCCN(C)C | % | 0
CC1OC(OP(=O)(OCc2ccccc2)OCc2ccccc2)C(OC(=O)c2ccccc2)C(OC(=O)c2ccccc2)C1I (stereo unspecified) | % | 30
CCCCCCCC/C=C\CCCCCCCC(=O)NCCN(C)C | % | 2
Fc1ccc(CSC(=S)Nc2cccc(C(F)(F)F)c2)cc1 | % | -2
O=[N+]([O-])c1ccc(C(Nc2ccccc2)c2ccc3cccnc3c2O)cc1 (stereo unspecified) | % | -11

====

Procedure summary: NCI Yeast Anticancer Drug Screen. Data for the bub3 strain (AID 167)
Stated conditions: S. cerevisiae bub3 mutant strain, at 50.0 µM, hits give high values
This is part of a sample that, as a whole, favours compounds with a hit. Of some 79,000 tested, about 15% had one in any assay. Activity calls are given as the source filed them. Rule as the data show it: active = growth inhibition above about 70%; inactive = the rest.

Molecule | growth inhibition
CC(C)=CCc1ccc(O)cc1 | 53.9% (inactive)
CN(C)CCCc1ccc2oc3ccccc3c2c1 | 69% (inactive)
CC12CCC(=O)C=C1CCC1C2C(O)CC2(C)C(c3csc(N)n3)CCC12 (stereo unspecified) | 96.8% (active)
C=C1CC2(OC1=O)C(=O)N(C)c1ccccc12 (stereo unspecified) | 88.2% (active)
COC(=O)C1(C)CCCC2(C)C3CCC4CC3(C=C4CO)CCC12 (stereo unspecified) | 80.7% (active)
C=CCOC(=O)CC(OC(C)=O)C(CC)CC(C)C (stereo unspecified) | 40.3% (inactive)
COc1ccc(Nc2nc3ccccc3s2)cc1 | 85.8% (active)
C/C(=N\N(C)C(=S)Nc1ccccc1)c1ccccn1 | 82% (active)
Cc1ccc(SCC#CC#CCS(=O)c2ccc(C)cc2)cc1 (stereo unspecified) | 97% (active)
CC(=O)N(/C=C\c1sc2ccccc2[n+]1C)c1ccccc1 | 91.3% (active)
O=C(N/C(=C\c1nc2ccccc2s1)c1ccccc1O)c1ccccc1 | 32.4% (inactive)
CCOP(=O)(OCC)/C(C#N)=C/c1ccc(C(F)(F)F)cc1 | 89.4% (active)
O=C(O)C1C2CC3CC(C2)CC1C3 (stereo unspecified) | 75.5% (active)
Clc1ccc(C(CCc2ccc(Br)cc2)Cn2ccnc2)c(Cl)c1 (stereo unspecified) | 99.2% (active)
CC1SC(c2ccc(Cl)cc2)N2C(=O)C(C)SC(c3ccc(Cl)cc3)N2C1=O (stereo unspecified) | 26.1% (inactive)
CSC(=S)CC(O)[C@@H]1CC2c3ccccc3C1c1ccccc12 (stereo partly specified) | 77% (active)

====

Procedure summary: NCI Yeast Anticancer Drug Screen. Data for the mec2-1 strain (AID 157)
Stated conditions: S. cerevisiae mec2-1 strain, at 5.0 µM (retest, dose inferred, filed as 0.5), hits give high values
The panel holds about 79,000 compounds, 15% with a hit somewhere; the sample as a whole holds those more often.

Compound | growth inhibition / %
CC(=O)CC(C)=O.CCN(CC)CC[C-]=O.[Pd+2] | 8
COC(=O)/C(C#N)=C1\NC(=O)CC(c2ccccc2)C1C#N (configuration not stated) | 9
O=[N+]([O-])c1ccc2c(c1)/C(=N/O)c1ccccc1-2 | 0
O=C(c1ccccc1)N(C(=S)N(C(=O)c1ccccc1)c1ccccc1)c1ccccc1 | -1
O=C(C[n+]1ccccc1)N=N/C(C(=O)Nc1c(Cl)c(O)c2ccccc2c1O)=C1/C(=O)Oc2cc(O)ccc2C1=O | 23
O=C(O)CC1c2ccccc2-c2ccccc21 | -24
CCOc1c(N=Nc2ccc(Cl)cc2)c(-c2ccccc2)nn1C(=S)S | 2
